assay: ATG_GATA_CIS: Attagene CIS-FACTORIAL HepG2 Assay for human GATA Binding Protein (AID 2282944); details: HepG2 GATA cis-element reporter, Attagene multiplex mRNA; actives raise or lower the signal
Activity calls are given as the source filed them. Rule for the calls: active = hit-call score of the fitted dose curve at least 0.9, where 1 is the maximum; inactive = score below 0.9.

{"columns": ["COMPOUND", "outcome"],
 "data": [
  ["Nc1c(S(=O)(=O)O)cc(Br)c2c1C(=O)c1ccccc1C2=O", "inactive"],
  ["CCCCCCCC(=O)OCC(O)CO (centres undefined)", "inactive"],
  ["CCCC(=O)c1ccccc1", "inactive"],
  ["O=Cc1ccccc1S(=O)(=O)O", "inactive"],
  ["Oc1c(Cl)cc(Cl)c(Cl)c1Cc1c(O)c(Cl)cc(Cl)c1Cl", "inactive"],
  ["CCCCOCC", "inactive"],
  ["O=CN1CCOCC1", "inactive"],
  ["C[C@@H]1CCN(C(=O)[C@H](CCCN=C(N)N)NS(=O)(=O)c2cccc3c2NC[C@H](C)C3)[C@@H](C(=O)O)C1", "inactive"],
  ["CN(C)CCOc1ccc(/C(=C(/CCCl)c2ccccc2)c2ccccc2)cc1", "inactive"],
  ["CC(C)CCOC(=O)c1ccccc1", "inactive"],
  ["CCCOCCO", "inactive"],
  ["COC(=O)C=C(C)CCC=C(C)C", "inactive"],
  ["CC(C)CC(C)CC(O)CC(C)C (centres undefined)", "inactive"],
  ["C1CCCCC1", "inactive"]
]}

====

target: Retinoic acid receptor RXR-alpha (Homo sapiens) (UniProt P19793); test: ATG_RXRa_TRANS: Attagene TRANS-FACTORIAL HepG2 Assay for human Retinoid X Receptor alpha (RXRa) (AID 2283012)
Sequence (P19793 whole entry, looked up): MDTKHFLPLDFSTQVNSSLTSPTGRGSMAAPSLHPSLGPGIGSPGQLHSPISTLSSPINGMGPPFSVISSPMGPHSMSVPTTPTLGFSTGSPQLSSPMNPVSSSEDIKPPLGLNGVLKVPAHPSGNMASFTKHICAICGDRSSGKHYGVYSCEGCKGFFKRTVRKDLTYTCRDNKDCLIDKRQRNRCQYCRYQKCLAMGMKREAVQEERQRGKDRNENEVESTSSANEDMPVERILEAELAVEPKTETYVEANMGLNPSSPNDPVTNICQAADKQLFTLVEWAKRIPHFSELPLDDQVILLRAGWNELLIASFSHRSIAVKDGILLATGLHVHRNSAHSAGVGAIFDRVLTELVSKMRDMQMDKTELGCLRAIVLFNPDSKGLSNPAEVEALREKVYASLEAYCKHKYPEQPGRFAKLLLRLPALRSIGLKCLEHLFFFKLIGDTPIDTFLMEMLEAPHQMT
Records with an inconclusive call do not appear. The source made the active and inactive calls. The calls were made as follows: active = hit-call score of the fitted dose curve at least 0.9, where 1 is the maximum; inconclusive = response in the unintended direction; inactive = score below 0.9.
Classes used: active, inactive

{"columns": ["COMPOUND", "LABEL VALUE"],
 "data": [
  ["C=CCCCCCCCCCC", "inactive"],
  ["O=C1OC2(c3ccccc31)c1ccc(O)c(Br)c1Oc1c2ccc(O)c1Br", "inactive"],
  ["c1ccc(CN(Cc2ccccc2)Cc2ccccc2)cc1", "inactive"],
  ["CSc1c(Cl)c(Cl)c(Cl)c(Cl)c1Cl", "active"],
  ["COCCc1ccc(OCC(O)CNC(C)C)cc1 (centres undefined)", "inactive"],
  ["CC(=O)CC(=O)Nc1ccccc1", "inactive"],
  ["Cc1ccc(-c2ccccc2)cc1", "inactive"],
  ["N#Cc1ccc(CC(=O)c2cccc(C(F)(F)F)c2)cc1", "active"],
  ["CC(C=O)Cc1ccc(C(C)(C)C)cc1 (centres undefined)", "inactive"]
]}

====

assay: CEETOX_H295R_OHPROG: CeeTox H295R High-throughput Steroidogenesis Assay for OH-Progesterone (OHPROG) (AID 2283435); settings: actives raise or lower the signal
Activity calls are given as the source filed them. The calls were made as follows: active = hit-call score of the fitted dose curve at least 0.9, where 1 is the maximum; inactive = score below 0.9.
Classes used: 1 = active, 0 = inactive

{"columns": ["COMPOUND", "LABEL VALUE"],
 "data": [
  ["COCCc1ccc(OCC(O)CNC(C)C)cc1 (stereo not drawn)", 1],
  ["CC1(C)C(=O)N(Cl)C(=O)N1Br", 0],
  ["COc1ccc(CCN2CCC(Nc3nc4ccccc4n3Cc3ccc(F)cc3)CC2)cc1", 1]
]}

====

assay: TOX21_p53_BLA_p2_viability: Viability Assessment in the Tox21 HCT-116 p53 Agonism Beta-lactamase Assay, Phase 2 (AID 2283591);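 note: compound exposure lasted 16 h at 37 °C; actives lower the ATP signal meaning cytotoxicity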
Results filed as inconclusive are left out. The source made the active and inactive calls. The calls were made as follows: active = hit-call score of the fitted dose curve at least 0.9, where 1 is the maximum; inconclusive = response in the unintended direction; inactive = score below 0.9.
Classes used: 1 = active, 0 = inactive

{"columns": ["COMPOUND", "LABEL VALUE"],
 "data": [
  ["OCc1cccc(Oc2ccccc2)c1", 0],
  ["Cc1ncc[nH]1", 0],
  ["OCCCCC(O)CO (centres undefined)", 0],
  ["CCCOCCO", 0],
  ["Nc1ccc(N)c2c1C(=O)c1ccccc1C2=O", 0],
  ["CCO/C=C1\\N=C(c2ccccc2)OC1=O", 0],
  ["CCOc1ccc(NC(=O)CC(C)O)cc1 (centres undefined)", 0],
  ["OCc1ccc(Cl)cc1Cl", 0],
  ["c1ccc2[nH]cnc2c1", 0],
  ["Nc1ccc2c(O)cc(S(=O)(=O)O)cc2c1", 0],
  ["CCCCCCCCC=CCCCCCCCC1=NCCN1CCO", 1],
  ["Cc1cc(C)nc(NS(=O)(=O)c2ccc(N)cc2)n1", 0],
  ["CC=CC=CCOC(=O)C(C)C", 0],
  ["CCc1ccc(O)cc1", 0],
  ["CCCCCCCCCCCC(=O)OC[C@@H](O)[C@H]1OC[C@H](O)[C@H]1O", 0],
  ["CCCC(=O)c1ccccc1", 0],
  ["CCc1ncc(C)[nH]1", 0],
  ["CCc1cc(Cc2cc(CC)cc(C(C)(C)C)c2O)c(O)c(C(C)(C)C)c1", 1],
  ["CCC1(c2ccccc2)C(=O)NCNC1=O", 0],
  ["C1CCOC1", 0],
  ["CCCCCCCCCCCCCC(=O)OCC(O)CO (centres undefined)", 0],
  ["C[Si]1(C)O[Si](C)(C)O[Si](C)(C)O1", 0],
  ["O=C(CS)OCCOC(=O)CS", 0],
  ["CC1(C)O[C@@H]2[C@@H](CO[C@@]3(COS(N)(=O)=O)OC(C)(C)O[C@@H]23)O1", 0],
  ["O=C1c2ccccc2C(=O)c2c(O)ccc(O)c21", 0],
  ["CC(=O)C1(C)CC2=C(CCCC2(C)C)CC1C (centres undefined)", 0],
  ["COc1ccc(CCC(C)=O)cc1", 0],
  ["C/C=C(\\C)C(=O)OCCc1ccccc1", 0],
  ["CC(C)=CCCC(C)CCOC=O (centres undefined)", 0],
  ["Cc1ccc(N)c(S(=O)(=O)O)c1", 0],
  ["COC(C)(C)CCCC(C)CC=O (centres undefined)", 0],
  ["C[C@H](CCC(=O)NCC(=O)O)[C@H]1CC[C@H]2[C@@H]3[C@H](O)C[C@@H]4C[C@H](O)CC[C@]4(C)[C@H]3C[C@H](O)[C@]12C", 0],
  ["O=C(O)c1ccc(O)cc1", 0],
  ["CCCC(=O)OC(C)(C)Cc1ccccc1", 0],
  ["C#CC(C)(O)CC(C)C (centres undefined)", 0],
  ["CCN(CCN)c1cccc(C)c1", 0],
  ["CCCCCCCCCCCCCCCC(=O)OC/C=C(C)/C=C/C=C(C)/C=C/C1=C(C)CCCC1(C)C", 0],
  ["O=C1OC[C@H](Cc2cccc(O)c2)[C@H]1Cc1cccc(O)c1", 0],
  ["CCC(C)S (centres undefined)", 0],
  ["CCOC(=O)COC(=O)c1cc(Oc2ccc(C(F)(F)F)cc2Cl)ccc1[N+](=O)[O-]", 0],
  ["[O-]n1ccccc1=S.[O-]n1ccccc1=S.[Zn+2]", 1],
  ["CCCSc1ccc2nc(NC(=O)OC)[nH]c2c1", 0],
  ["C=C(C)C(=O)OCCOCCOCCOC(=O)C(=C)C", 0],
  ["Cc1ncc([N+](=O)[O-])n1CCO", 0],
  ["CCCC(C)=O", 0],
  ["CCOCCOCCOCC", 0],
  ["Nc1ccccc1[N+](=O)[O-]", 0],
  ["N[C@@H](Cc1cc(I)c(Oc2cc(I)c(O)c(I)c2)c(I)c1)C(=O)O", 0],
  ["NC(=S)NNC(N)=S", 0],
  ["C=Cc1ccc(C)cc1", 0],
  ["C#CC(C)N(C)C(=O)Nc1ccc(Cl)cc1 (centres undefined)", 0],
  ["O=CN1CCOCC1", 0],
  ["CCCCCCCCSCCO", 0],
  ["C1=CC2C3C=CC(C3)C2C1 (centres undefined)", 0],
  ["C1CCCCC1", 0],
  ["CC1(C)C2=CCCC(C)(C)[C@]23CC[C@H]1C3", 0],
  ["CCCCCCCCCC(C)C=O (centres undefined)", 0],
  ["Cc1cccc(Nc2ccccc2)c1", 0],
  ["CCC(Cl)C(Cl)C(Cl)CC(Cl)C(Cl)C(C)Cl (centres undefined)", 0]
]}

====

biological target: D(1A) dopamine receptor (Homo sapiens) (UniProt P21728); test: NVS_GPCR_hDRD1: NovaScreen (NVS) G Protein-Coupled Receptor Assay for human Dopamine Receptor D1 (DRD1) (AID 2283269)
Sequence (P21728 whole entry, looked up): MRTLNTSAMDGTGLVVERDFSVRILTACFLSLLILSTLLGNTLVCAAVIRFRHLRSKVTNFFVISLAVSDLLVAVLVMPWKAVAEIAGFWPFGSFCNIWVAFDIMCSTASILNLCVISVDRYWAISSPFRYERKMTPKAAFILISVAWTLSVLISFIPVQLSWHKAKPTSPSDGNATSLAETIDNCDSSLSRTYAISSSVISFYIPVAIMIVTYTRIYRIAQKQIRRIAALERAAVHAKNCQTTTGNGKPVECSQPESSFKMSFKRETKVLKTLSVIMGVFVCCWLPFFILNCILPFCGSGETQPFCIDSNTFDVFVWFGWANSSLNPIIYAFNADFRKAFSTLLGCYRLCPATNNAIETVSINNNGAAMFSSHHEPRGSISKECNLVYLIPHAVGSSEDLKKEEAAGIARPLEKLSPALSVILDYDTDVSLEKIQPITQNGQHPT
Records with an inconclusive call do not appear. The source made the active and inactive calls. How the source made its calls: active means hit-call score of the fitted dose curve at least 0.9, where 1 is the maximum; inconclusive means response in the unintended direction; inactive means score below 0.9.
Classes used: active, inactive

{"columns": ["COMPOUND", "LABEL VALUE"],
 "data": [
  ["CC(C)(N=C=O)c1cccc(C(C)(C)N=C=O)c1", "active"],
  ["CN(C)C(=S)SC(=S)N(C)C", "active"],
  ["CCCCSCCCC", "inactive"],
  ["C[C@@H]1CCN(C(=O)[C@H](CCCN=C(N)N)NS(=O)(=O)c2cccc3c2NC[C@H](C)C3)[C@@H](C(=O)O)C1", "active"],
  ["ClC(c1ccccc1)(c1ccccc1)c1ccccc1", "inactive"],
  ["C=CCOC(=O)CCCCCC", "inactive"],
  ["CCCCCCCCCCCCCCCC(=O)OC/C=C(C)/C=C/C=C(C)/C=C/C1=C(C)CCCC1(C)C", "active"],
  ["COCCc1ccc(OCC(O)CNC(C)C)cc1 (stereo not drawn)", "inactive"]
]}
